Please respond with reported Ki for every item in the list.
target: human κ receptor (Homo sapiens, UniProt P41145); experiment: biochemical; format: binding
Sequence (P41145 whole entry): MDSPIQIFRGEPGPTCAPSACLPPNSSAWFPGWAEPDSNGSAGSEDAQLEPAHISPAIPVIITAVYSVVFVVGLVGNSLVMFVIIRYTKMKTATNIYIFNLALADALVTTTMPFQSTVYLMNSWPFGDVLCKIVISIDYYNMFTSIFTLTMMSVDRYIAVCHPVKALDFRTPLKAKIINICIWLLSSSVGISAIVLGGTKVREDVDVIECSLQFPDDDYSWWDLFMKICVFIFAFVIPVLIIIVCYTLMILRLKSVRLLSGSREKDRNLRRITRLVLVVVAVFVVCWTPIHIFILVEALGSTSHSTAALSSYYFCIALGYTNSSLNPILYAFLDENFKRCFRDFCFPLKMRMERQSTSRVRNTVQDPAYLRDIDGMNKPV
Answers are plain numbers, in nM.

These solved cases illustrate the format of a correct answer.
O=C(N1CCCC1)C(CCN1CCC(O)(c2ccc(Cl)cc2)CC1)(c1ccccc1)c1ccccc1 [Compound 17B]
2230
O=C(N1CCCCC1)C(CCN1CCC(O)(c2ccccc2)CC1)(c1ccccc1)c1ccccc1 [Compound 17C]
4680

Attention now turns to another entry.
Form field: reported Ki of CCN(C)C(=O)C(CCN1CCC(O)(c2ccc(Cl)cc2)CC1)(c1ccccc1)c1ccccc1 [Compound 17A] 1420

###

Assay read-out pKi; system under study: human μ opiate receptors (Homo sapiens).
Sequence (P35372 whole entry): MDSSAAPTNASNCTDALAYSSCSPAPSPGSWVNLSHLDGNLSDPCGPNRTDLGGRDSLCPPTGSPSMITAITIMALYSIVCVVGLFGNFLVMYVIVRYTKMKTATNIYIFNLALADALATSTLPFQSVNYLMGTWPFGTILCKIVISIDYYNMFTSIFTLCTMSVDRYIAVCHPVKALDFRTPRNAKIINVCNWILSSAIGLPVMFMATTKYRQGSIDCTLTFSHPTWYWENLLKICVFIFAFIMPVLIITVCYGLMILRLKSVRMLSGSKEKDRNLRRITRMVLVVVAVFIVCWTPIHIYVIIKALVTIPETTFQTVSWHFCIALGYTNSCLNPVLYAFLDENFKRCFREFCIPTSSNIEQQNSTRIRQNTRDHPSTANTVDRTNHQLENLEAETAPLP
Give bare numbers, as −log10 of the molar value.

These solved cases illustrate the format of a correct answer.
N#CC(CCN1CCC(C(=O)O)(c2ccccc2)CC1)(c1ccccc1)c1ccccc1
7.89
O=C(N1CCCC1)C(CCN1CCC(O)(c2ccc(Cl)cc2)CC1)(c1ccccc1)c1ccccc1 [Compound 17B]
8.66
O=C(N1CCCCC1)C(CCN1CCC(O)(c2ccccc2)CC1)(c1ccccc1)c1ccccc1 [Compound 17C]
8.60
CNC(=O)C(CCN1CCC(O)(c2ccc(Cl)cc2)CC1)(c1ccccc1)c1ccccc1.Cl [Example 18, hydrochloride]
8.96

Attention now turns to another entry.
Provide the documented pKi with human μ opiate receptors (Homo sapiens) as the system for CCN(C)C(=O)C(CCN1CCC(O)(c2ccc(Cl)cc2)CC1)(c1ccccc1)c1ccccc1 [Compound 17A] 8.40
